# target_under_test: CDK1/Cyclin B1 (Homo sapiens, UniProt P06493)
# Sequence (P06493 whole entry): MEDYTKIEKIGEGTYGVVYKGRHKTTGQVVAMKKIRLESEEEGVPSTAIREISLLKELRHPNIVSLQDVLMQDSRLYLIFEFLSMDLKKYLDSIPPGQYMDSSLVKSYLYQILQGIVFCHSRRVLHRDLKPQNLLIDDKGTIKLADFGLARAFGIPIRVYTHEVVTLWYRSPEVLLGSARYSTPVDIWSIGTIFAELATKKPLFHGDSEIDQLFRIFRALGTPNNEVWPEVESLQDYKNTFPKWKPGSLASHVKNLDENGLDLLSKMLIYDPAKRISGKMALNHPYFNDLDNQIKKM
# Sequence (P14635 whole entry partner): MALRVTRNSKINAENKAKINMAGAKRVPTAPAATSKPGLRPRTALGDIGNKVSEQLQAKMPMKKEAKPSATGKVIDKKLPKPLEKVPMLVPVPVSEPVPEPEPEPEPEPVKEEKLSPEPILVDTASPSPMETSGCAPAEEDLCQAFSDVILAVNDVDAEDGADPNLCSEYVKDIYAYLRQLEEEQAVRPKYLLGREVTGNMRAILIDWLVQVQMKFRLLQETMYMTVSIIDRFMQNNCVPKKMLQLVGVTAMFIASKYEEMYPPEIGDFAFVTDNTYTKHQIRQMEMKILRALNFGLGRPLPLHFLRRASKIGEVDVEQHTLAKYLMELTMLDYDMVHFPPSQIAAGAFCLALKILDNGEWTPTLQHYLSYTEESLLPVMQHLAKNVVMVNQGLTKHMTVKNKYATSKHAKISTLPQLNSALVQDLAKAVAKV
# experiment_summary: CDK1/Cyclin B1 TR-FRET biochemical assay, 0.015 mM ATP
# condition_summary: 0.15 μM Rb (Ser780)-biotin substrate, 120 min reaction, Table 1
pIC50: −log10 of the molar value.
readout_label: pIC50

P. CCOC(=O)c1cn[nH]c1O[C@H]1CC[C@@H](c2cc(Nc3ccc4c(c3F)CNS4(=O)=O)n[nH]2)C1 (relative stereo)
Q. O=c1c2ccncc2cnn1[C@H]1CC[C@@H](c2cc(Nc3ccc4c(c3F)CNS4(=O)=O)n[nH]2)C1 (relative stereo)
R. O=S1(=O)NCc2c1ccc(Nc1cc([C@H]3CC[C@@H](Oc4nscc4C4CC4)C3)[nH]n1)c2F (relative stereo)
S. Cc1ccnnc1O[C@@H]1CC[C@H](c2cc(Nc3ccc4c(c3F)CNS4(=O)=O)n[nH]2)C1 (relative stereo)
-- ask Please give the order of these compounds when sorted by pIC50, largest value leading. Answer by writing out the labels in the requested order.
-- reply S, R, P, Q
(S: 7.31, R: 6.93, P: 6.70, Q: 5.81)

* * *

# target_under_test: CDK2/Cyclin E1 (Homo sapiens, UniProt P24941)
# experiment_summary: CDK2/Cyclin E1 TR-FRET biochemical assay, 1 mM ATP
# condition_summary: 0.15 μM Rb (Ser780)-biotin substrate, 90 min reaction, Table 2
readout_label: IC50 (nM)

>>> reported_result("CC(C)(C)c1cnc(C2CCC(c3cc(Nc4ccc5c(c4F)CS(=O)(=O)C5)n[nH]3)C2)o1 (stereo not shown)")
2.8

I. CC(C)(C)c1ccnc(C2CCC(c3cc(Nc4cc5c(cc4F)S(=O)(=O)NC5)n[nH]3)C2)n1 (stereo not shown)
II. COc1cccc(C2CCC(c3cc(Nc4ccc5c(c4F)CNS5(=O)=O)n[nH]3)C2)n1 (stereo not shown)
III. CC(C)c1ccnc(C2CCC(c3cc(Nc4ccc5c(c4F)CS(=O)(=O)C5)n[nH]3)C2)c1 (stereo not shown)
-- ask Could you please sort these 3 entries by IC50 from high to low? Answer by writing out the labels in the requested order.
-- reply II, III, I

* * *

# target_under_test: CDK2/Cyclin E1 (Homo sapiens, UniProt P24941)
# experiment_summary: CDK2/Cyclin E1 TR-FRET biochemical assay, 0.060 mM ATP
# condition_summary: 0.15 μM Rb (Ser780)-biotin substrate, 120 min reaction, Table 1
pIC50: −log10 of the molar value.
readout_label: pIC50

Solved cases (5 shown):
>>> reported_result("CC(C)(C)c1n[nH]cc1OC1CCC(c2cc(Nc3ccc4c(c3F)CNS4(=O)=O)n[nH]2)C1 (single isomer, unassigned) [Example 74a]")
8.31
>>> reported_result("CC(C)c1cncc(O[C@@H]2CC[C@H](c3cc(Nc4ccc5c(c4F)CNS5(=O)=O)n[nH]3)C2)c1 (relative stereo) [Example 44]")
5.85
>>> reported_result("Cc1cc(O[C@@H]2CC[C@H](c3cc(Nc4ccc5c(c4F)CNS5(=O)=O)n[nH]3)C2)n(-c2ccccc2)n1 (relative stereo) [Example 66]")
5.60
>>> reported_result("O=c1cccnn1[C@H]1CC[C@@H](c2cc(Nc3ccc4c(c3F)CNS4(=O)=O)n[nH]2)C1 (relative stereo) [Example 21]")
7.85
>>> reported_result("Cc1ccnnc1O[C@@H]1CC[C@H](c2cc(Nc3ccc4c(c3F)CNS4(=O)=O)n[nH]2)C1 (relative stereo) [Example 24]")
8.24

I. CN1C(=O)N([C@H]2CC[C@@H](c3cc(Nc4ccc5c(c4F)CNS5(=O)=O)n[nH]3)C2)C(=O)C1(C)C (relative stereo) [Example 86]
II. O=S1(=O)NCc2c1ccc(Nc1cc([C@H]3CC[C@@H](Oc4nscc4C4CC4)C3)[nH]n1)c2F (relative stereo) [Example 53]
III. O=S1(=O)NCc2c1ccc(Nc1cc([C@H]3CC[C@@H](Oc4ccsn4)C3)[nH]n1)c2F (relative stereo) [Example 50]
IV. CC1(C)NC(=O)N(C2CCC(c3cc(Nc4ccc5c(c4F)CNS5(=O)=O)n[nH]3)C2)C1=O (single isomer, unassigned) [Example 84a]
V. O=c1ccsn1[C@H]1CC[C@@H](c2cc(Nc3ccc4c(c3F)CNS4(=O)=O)n[nH]2)C1 (relative stereo) [Example 51]
-- ask Could you please sort these 5 entries by pIC50 from high to low? Answer by writing out the labels in the requested order.
-- reply II, IV, III, I, V
(II: 8.39, IV: 8.12, III: 7.48, I: 7.14, V: 6.67)
